Sourced from patent US10168342B2

# TARGET: AEA-DA lipid probe targets in Neuro2a cells (Mus musculus, UniProt Q3V009)
# Sequence (Q3V009 25-227): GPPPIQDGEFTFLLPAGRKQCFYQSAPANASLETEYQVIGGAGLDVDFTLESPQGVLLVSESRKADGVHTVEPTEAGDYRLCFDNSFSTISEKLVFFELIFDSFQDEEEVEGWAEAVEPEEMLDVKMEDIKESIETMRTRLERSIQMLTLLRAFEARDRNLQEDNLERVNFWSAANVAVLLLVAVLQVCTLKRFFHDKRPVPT
# MEASUREMENT_CONDITIONS: competitor 25 μM
PROPERTY_MEASURED: SILAC ratio, Tmed1
One number for each entry.

Look over these answered cases.
Lookup: Reported SILAC ratio, Tmed1 for O=C(/C=C/c1cccnc1)NCCCCC1CCN(C(=O)c2ccccc2)CC1 [FK-866, reference compound] : what is it?
Found: 1.3

Lookup: What measured SILAC ratio, Tmed1 goes with "CN1CCN(C(=O)c2[nH]c3ccc([N+](=O)[O-])cc3c2-c2ccccc2)CC1" ?
Found: 1.6

Lookup: Can you look up the measured SILAC ratio, Tmed1 of "CN1CCN(C(=O)c2c(-c3ccccc3)c3cc([N+](=O)[O-])ccc3n2C)CC1" for me?
Found: 1.6

Attention now shifts to the item below.
Lookup: # lookup: SILAC ratio, Tmed1 of C=CCN(C)CCCCCCOc1ccc(C(=O)c2ccc(Br)cc2)c(F)c1 [Ro 48-8071, reference compound]
Found: 1.2
